Source: paper PMC11093748

Test system: TCR4
Test Method Notes: Single SABR-II co-incubation, NFAT-GFP Jurkat
Assay type: cell-based, mouse
Condition Details: TCR 4; Ext. Data Fig. 6C; 18-20 hr; technical replicate 1
Method: We performed systematic screening of the cloned TCRs against the I-Ag7 SABR-II library. Several TCRs along with a positive control (such as BDC2.5 or 4-8Ins) were screened individually against the library for each sort (Extended Data Fig. 6a and Supplementary Table 4). […] Co-incubation assays that yielded a GFP signal higher than that obtained in assays with no TCR were determined to be positive and the epitopes deemed true cognate ligands (Extended Data Fig. 6b,c). […]
Each entry below carries its reported %GFP+CD69+ cells of SABR-NFAT-GFP-Jurkat cells.
# unit: % | format: bare number

Known %GFP+CD69+ cells of SABR-NFAT-GFP-Jurkat cells results, listed for orientation:
>>> value_reported("RRALQTLALNAARDP")
12.8
>>> value_reported("LQTLALNAARDP")
21.3
>>> value_reported("LQTLALNAARD")
22.3

Now for another entry.
Task item: Entry under review: PGAGDLQTLALNAARDP . Reported %GFP+CD69+ cells of SABR-NFAT-GFP-Jurkat cells?
Reply: 20.2
